Cited source for all entries: patent US8722629B2

System: human renal cancer cell line 786-0
protocol: Antiproliferative effect on the 786-0 RCC cell line (MTT assay)
Format: cell-based
reportedConditions: Homo sapiens, 786-0, 786-0 cells, incubation 48 h to 96 h
Structures can show the parent of a compound that is named as a salt. Starred links: 1 amine or outer side, 2 acyl side, 3 side chain; linkers in the order of their positions; H or OH if unused. Non-standard residues stand in square brackets, D forms with d. Residues, ends and D or L forms follow the SMILES beside them. *: point of attachment. Dolaproine = CO[C@@H]([C@@H]1CCCN1)[C@@H](C)C(=O)O; X2 = C[C@@H](c1ccccc1)[C@H](N[*:1])C(=O)[*:2]; Dil = CC[C@H](C)[C@H](NC)[C@@H](CC(=O)O)OC; Oxazinan2yl(1,2) = C1CCN(*)OC1; NMeV = CN[C@H](C(=O)O)C(C)C; X3 = c1ccc2c(c1)CON(*)C2
Provide the reported IC50 of each item.
One number for each entry, in nM.

Example compounds with recorded IC50:
[[record]]
compound = "CC[C@H](C)[C@@H]([C@@H](CC(=O)N1CCC[C@H]1[C@H](OC)[C@@H](C)C(=O)N[C@H](C(=O)N1CCCCO1)[C@@H](C)c1ccccc1)OC)N(C)C(=O)[C@@H](NC(=O)[C@@H](NC)C(C)C)C(C)C [Example 4, trifluoroacetic acid salt] (H-[NMeV]V[Dil][Dolaproine][X2]-{Oxazinan2yl(1,2)})"
target = "human renal cancer cell line 786-0"
parameter = "IC50"
recordedresult = 14

[[record]]
compound = "CC[C@H](C)[C@@H]([C@@H](CC(=O)N1CCC[C@H]1[C@H](OC)[C@@H](C)C(=O)N[C@@]1(C(=O)N2CCCCO2)C[C@@H]1c1ccccc1)OC)N(C)C(=O)[C@@H](NC(=O)[C@H](C(C)C)N(C)CCCCCC(=O)O)C(C)C"
target = "human renal cancer cell line 786-0"
parameter = "IC50"
recordedresult = 18


Give reported IC50 value for CC[C@H](C)[C@@H]([C@@H](CC(=O)N1CCC[C@H]1[C@H](OC)[C@@H](C)C(=O)N[C@@H](Cc1ccccc1)C(=O)N1Cc2ccccc2CO1)OC)N(C)C(=O)[C@@H](NC(=O)[C@@H](NC)C(C)C)C(C)C [Example 8, trifluoroacetic acid salt] (H-[NMeV]V[Dil][Dolaproine]F-X3)
2.4
